targetUnderTest: HLA B*3501 (Homo sapiens, UniProt P01889, A329T/A93T/A95T/C349S/D201E/D98Y/E176V/E187L/E204Q/E69T/I218V/K202T/L119I/Q94N/R155S/R180L/S121R/S35A/S48A/T118I/V127L/V306I/V36M/Y140S/Y91F)
Format: binding
Measured Normalized average relative binding affinity(ARB) of individual entries
experimentalEndpoint: Normalized average relative binding affinity(ARB)

{"biopolymerSequence": "XXXXSXXXX [3064.0096]", "reported": 0.27}
{"biopolymerSequence": "XXXXXHXXX [3064.0107]", "reported": 0.26}
{"biopolymerSequence": "XXXXXXYXX [3064.0140]", "reported": 0.32}
{"biopolymerSequence": "XXXXXXXTX [3064.0157]", "reported": 0.26}
{"biopolymerSequence": "XXXXWXXXX [3064.0099]", "reported": 0.29}
{"biopolymerSequence": "XXXXXXMXX [3064.0131]", "reported": 0.13}
{"biopolymerSequence": "XXXXXXNXX [3064.0132]", "reported": 0.28}
{"biopolymerSequence": "XXXFXXXXX [3064.0065]", "reported": 0.10}
{"biopolymerSequence": "XXXQXXXXX [3064.0074]", "reported": 0.088}
{"biopolymerSequence": "XXXVXXXXX [3064.0078]", "reported": 0.17}
{"biopolymerSequence": "XXXTXXXXX [3064.0077]", "reported": 0.54}
{"biopolymerSequence": "XXXXXXXQX [3064.0154]", "reported": 0.10}
{"biopolymerSequence": "XXXXXXCXX [3064.0122]", "reported": 0.18}
{"biopolymerSequence": "XXXXXXXNX [3064.0152]", "reported": 0.14}
{"biopolymerSequence": "XXXXXLXXX [3064.0110]", "reported": 0.29}
{"biopolymerSequence": "XXXXXXXCX [3064.0142]", "reported": 0.087}

* * *

targetUnderTest: HLA A*3001 (Homo sapiens, UniProt P04439, D140H/D185E/E176W/F33S/G80R/H175R/K168Q/R138E/R41S)
measurementDescription: biochemical
pIC50: −log10 of the molar value. Where a SMILES comes first, the peptide text is derived from it.
Catalogue of pIC50 readings, one per entry.

{"molecule": "CC[C@H](C)[C@H](NC(=O)[C@@H](NC(=O)[C@@H](N)CCCCN)[C@@H](C)O)C(=O)N[C@@H](Cc1c[nH]c2ccccc12)C(=O)N[C@@H](CCC(=O)O)C(=O)N[C@H](C(=O)N1CCC[C@H]1C(=O)N[C@@H](CCC(N)=O)C(=O)N[C@@H](CCCCN)C(=O)O)[C@@H](C)CC [3102.0190] (H-KTIWEIPQK-OH)", "pIC50": 7.92}
{"molecule": "CC[C@H](C)[C@H](N)C(=O)N[C@H](C(=O)N[C@@H](CCCCN)C(=O)N[C@@H](CO)C(=O)N[C@@H](CO)C(=O)N[C@@H](Cc1ccc(O)cc1)C(=O)N[C@H](C(=O)N[C@@H](Cc1ccccc1)C(=O)N[C@@H](CCCCN)C(=O)O)C(C)C)[C@@H](C)CC [3102.0029] (H-IIKSSYVFK-OH)", "pIC50": 7.96}

* * *

targetUnderTest: HLA A*3201 (Homo sapiens, UniProt P04439, A270S/D101S/D185E/E176V/E277Q/F133L/G103R/G107R/G231S/H175R/I121M/I218V/I322F/K168Q/L105A/L300P/L318F/M331R/P208A/P217A/Q94H/R106L/R138Q/S129P/T104I/T323A/T345S/V100E/V321M/V358M)
measurementDescription: biochemical
pIC50: −log10 of the molar value. Where a SMILES comes first, the peptide text is derived from it.
experimentalEndpoint: pIC50

{"compound": "CC[C@H](C)[C@H](NC(=O)[C@@H](N)CCCCN)C(=O)N[C@@H](Cc1ccc(O)cc1)C(=O)N[C@@H](CC(N)=O)C(=O)N[C@H](C(=O)N[C@H](C(=O)N[C@@H](CC(N)=O)C(=O)N1CCC[C@H]1C(=O)N[C@@H](Cc1ccccc1)C(=O)O)[C@@H](C)O)C(C)C [3102.1223] (H-KIYNVTNPF-OH)", "reported": 8.37}
{"compound": "CC[C@H](C)[C@H](NC(=O)[C@H](CCCCN)NC(=O)[C@H](CCC(N)=O)NC(=O)[C@H](C)NC(=O)[C@@H](NC(=O)CNC(=O)[C@H](Cc1ccc(O)cc1)NC(=O)[C@H](CC(C)C)NC(=O)[C@@H](N)CCSC)[C@@H](C)CC)C(=O)O [3102.0335] (H-MLYGIAQKI-OH)", "reported": 7.92}
{"compound": "CC[C@H](C)[C@H](NC(=O)[C@H](CCC(N)=O)NC(=O)[C@H](CCC(=O)O)NC(=O)[C@H](CC(=O)O)NC(=O)[C@@H](NC(=O)[C@@H](N)CCSC)[C@@H](C)O)C(=O)N[C@@H](Cc1ccc(O)cc1)C(=O)N[C@@H](C)C(=O)N[C@@H](Cc1ccccc1)C(=O)O [3102.0453] (H-MTDEQIYAF-OH)", "reported": 7.74}
{"compound": "CC[C@H](C)[C@H](NC(=O)[C@@H](NC(=O)[C@H](CC(N)=O)NC(=O)[C@H](CCSC)NC(=O)[C@@H](N)CO)[C@@H](C)O)C(=O)N[C@@H](CCCCN)C(=O)N[C@@H](CCC(N)=O)C(=O)N[C@@H](CO)C(=O)N[C@@H](Cc1ccccc1)C(=O)O [3102.1144] (H-SMNTIKQSF-OH)", "reported": 6.53}
{"compound": "CC[C@H](C)[C@H](NC(=O)[C@H](CC(N)=O)NC(=O)[C@H](CCSC)NC(=O)[C@H](CCSC)NC(=O)[C@@H](N)Cc1ccc(O)cc1)C(=O)N[C@@H](Cc1ccc(O)cc1)C(=O)N[C@@H](CC(C)C)C(=O)N[C@@H](CC(N)=O)C(=O)N[C@@H](Cc1ccccc1)C(=O)O [3102.0446] (H-YMMNIYLNF-OH)", "reported": 8.54}
{"compound": "CC[C@H](C)[C@H](NC(=O)[C@@H](NC(=O)[C@H](CC(C)C)NC(=O)[C@H](CO)NC(=O)[C@H](C)NC(=O)CNC(=O)[C@H](CC(N)=O)NC(=O)[C@H](CO)NC(=O)[C@@H](N)CC(C)C)[C@@H](C)O)C(=O)O [3102.0383] (H-LSNGASLTI-OH)", "reported": 7.13}
{"compound": "CC[C@H](C)[C@H](NC(=O)[C@@H](NC(=O)[C@H](CC(C)C)NC(=O)[C@@H](NC(=O)[C@H](CCCNC(=N)N)NC(=O)[C@H](CC(N)=O)NC(=O)[C@@H](NC(=O)[C@@H](NC(=O)CN)[C@@H](C)O)[C@@H](C)CC)[C@@H](C)CC)C(C)C)C(=O)O [3102.0337] (H-GTINRILVI-OH)", "reported": 7.82}

* * *

targetUnderTest: H-2 K^k (Mus musculus, UniProt P04223)
Sequence (P01887 21-119): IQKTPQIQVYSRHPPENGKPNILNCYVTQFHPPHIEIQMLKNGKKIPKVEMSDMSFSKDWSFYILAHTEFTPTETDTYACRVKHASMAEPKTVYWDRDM
Sequence (P04223 22-369): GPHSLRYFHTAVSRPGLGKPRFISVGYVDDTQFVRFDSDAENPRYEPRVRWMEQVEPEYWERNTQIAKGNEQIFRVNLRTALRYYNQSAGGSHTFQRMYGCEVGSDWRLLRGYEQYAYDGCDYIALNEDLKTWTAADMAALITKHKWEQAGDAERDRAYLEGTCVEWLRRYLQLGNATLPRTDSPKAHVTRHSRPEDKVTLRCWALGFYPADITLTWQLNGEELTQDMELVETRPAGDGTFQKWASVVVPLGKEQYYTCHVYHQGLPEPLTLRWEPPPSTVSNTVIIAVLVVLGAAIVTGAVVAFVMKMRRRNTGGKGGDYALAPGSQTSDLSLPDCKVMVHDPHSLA
Type: binding
Here, each record is paired with measured Normalized average relative binding affinity(ARB) data.
experimentalEndpoint: Normalized average relative binding affinity(ARB)

{"biopolymerSequence": "XXXVXXXXX [3064.0078]", "reported": 0.49}
{"biopolymerSequence": "XXXXXXXSX [3064.0156]", "reported": 0.48}
{"biopolymerSequence": "XXXXXXXQX [3064.0154]", "reported": 0.19}
{"biopolymerSequence": "XXXXXQXXX [3064.0114]", "reported": 0.12}
{"biopolymerSequence": "XXXXAXXXX [3064.0081]", "reported": 0.14}
{"biopolymerSequence": "XXXXXLXXX [3064.0110]", "reported": 0.25}
{"biopolymerSequence": "XXXXPXXXX [3064.0093]", "reported": 0.072}
{"biopolymerSequence": "XXXXXSXXX [3064.0116]", "reported": 0.70}
{"biopolymerSequence": "XXXGXXXXX [3064.0066]", "reported": 0.19}
{"biopolymerSequence": "XXXXXXXFX [3064.0145]", "reported": 1.0}
{"biopolymerSequence": "XXXXMXXXX [3064.0091]", "reported": 0.24}
{"biopolymerSequence": "XXXXXXXEX [3064.0144]", "reported": 0.46}
{"biopolymerSequence": "XXXXXXFXX [3064.0125]", "reported": 1.0}
{"biopolymerSequence": "XXXPXXXXX [3064.0073]", "reported": 0.41}
{"biopolymerSequence": "XXXLXXXXX [3064.0070]", "reported": 0.96}
{"biopolymerSequence": "XXXXXXXGX [3064.0146]", "reported": 0.32}

Reference source for all entries: paper PMC2248166
